Data origin, for the record: patent US20090264401A1

Below: a set of entries, each annotated with reported inhibition at 30 µM.
# test system: human 11βHSD1 enzyme (Homo sapiens, UniProt P28845)
# Construct: baculovirus expressed N terminal 6-His tagged full length human 11βHSD1 enzyme; 6-His (N); made in house
# Sequence (P28845 whole entry): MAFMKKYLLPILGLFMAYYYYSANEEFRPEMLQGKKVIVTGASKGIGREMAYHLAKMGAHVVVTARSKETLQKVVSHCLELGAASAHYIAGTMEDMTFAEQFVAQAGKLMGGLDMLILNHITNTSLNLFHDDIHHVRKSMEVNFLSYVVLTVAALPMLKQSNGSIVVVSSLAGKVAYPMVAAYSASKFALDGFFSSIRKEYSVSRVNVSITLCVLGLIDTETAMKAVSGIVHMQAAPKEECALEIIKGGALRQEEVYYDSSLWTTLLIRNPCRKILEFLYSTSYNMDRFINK
# assay notes: 11βHSD1 cortisone to cortisol conversion, competitive HTRF assay
# Format: biochemical
# conditions: human 11-βHSD; test concentration of 30 μM of compound
Give your result in % as a bare value.

Solved entries (count: 2):
compound: O=C(N[C@H]1C2CC3CC1C[C@@](O)(C3)C2)c1cnc(NC2CCOCC2)nc1[C@H]1CCCO1
test system: human 11βHSD1 enzyme (Homo sapiens, UniProt P28845)
parameter: inhibition at 30 µM
readout value: 95

compound: CCCSc1nc(N2CCN(S(C)(=O)=O)CC2)ncc1C(=O)NC1C2CC3CC(C2)CC1C3 (stereo not shown)
test system: human 11βHSD1 enzyme (Homo sapiens, UniProt P28845)
parameter: inhibition at 30 µM
readout value: 103

// query # return inhibition at 30 µM for O=C(N[C@H]1C2CC3CC1C[C@@](O)(C3)C2)c1cnc(N2CC[S+]([O-])CC2)nc1C1CCC1 , test system: human 11βHSD1 enzyme (Homo sapiens, UniProt P28845)
// result 95.2

// query Look up human 11βHSD1 enzyme (Homo sapiens, UniProt P28845) data: inhibition at 30 µM of O=C(N[C@H]1C2CC3CC1C[C@@](O)(C3)C2)c1cnc(N2CCOCC2CO)nc1C1CCCC1 (stereo partly shown) , then report it.
// result 105

// query Give the observed inhibition at 30 µM of O=C(N[C@H]1C2CC3CC1C[C@@](O)(C3)C2)c1cnc(N2C[C@@H]3C[C@H]2CO3)nc1C1CC1 for human 11βHSD1 enzyme (Homo sapiens, UniProt P28845).
// result 99.6

// query Under human 11βHSD1 enzyme (Homo sapiens, UniProt P28845), report inhibition at 30 µM for O=C(N[C@H]1C2CC3CC1C[C@@](O)(C3)C2)c1cnc(N2CCS(=O)(=O)CC2)nc1C1CCCC1
// result 98.1

// query Return reported inhibition at 30 µM for target or system human 11βHSD1 enzyme (Homo sapiens, UniProt P28845), item CC(C)Oc1ncc(C(=O)N[C@H]2C3CC4CC2C[C@@](O)(C4)C3)c([C@H]2CCCO2)n1 .
// result 97.9
